- target-under-test: Adenosine receptor A2b (Homo sapiens)
- Sequence (P29275 whole entry): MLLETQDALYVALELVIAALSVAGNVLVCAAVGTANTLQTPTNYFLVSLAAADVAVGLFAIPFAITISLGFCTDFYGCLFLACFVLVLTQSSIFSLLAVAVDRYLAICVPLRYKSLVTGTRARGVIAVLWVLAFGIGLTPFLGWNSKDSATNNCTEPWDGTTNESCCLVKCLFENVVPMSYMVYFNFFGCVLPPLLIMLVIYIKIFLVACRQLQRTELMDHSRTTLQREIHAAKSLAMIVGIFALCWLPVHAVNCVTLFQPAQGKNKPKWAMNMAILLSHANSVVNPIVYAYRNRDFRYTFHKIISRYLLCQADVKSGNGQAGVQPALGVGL
pKi: −log10 of the molar value.
Literature compilation of pKi measurements on Adenosine receptor A2b (Homo sapiens).
measurement-label: pKi

Known results for compounds:
{"compound": "O=C(Nc1ccc(-c2ccncc2)c(-c2cccnc2)n1)C1CC1", "pKi": 7.48}
{"compound": "CCOC(=O)C1=C(C)Nc2nc3ccccc3n2C1c1cc[nH]n1 (racemic)", "pKi": 6.15}

1. CC1=C(C(=O)OC(C)C)C(c2ccoc2)NC(=S)N1 (racemic)
2. Nc1n[nH]c2nc(-c3ccco3)c(-c3ccncn3)cc12
Form: Entry with minimum pKi (choose one): 1 / 2 Pick one and reply with its label.
1
